These entries and their values trace back to ChEMBL document CHEMBL3988442.

Catalogue of Percent Effect readings, one per entry.
Biological target: Shiga toxin 2 (Escherichia coli O157:H7) (UniProt P09385+P09386)
Assay: E. coli 0.157:H7 Shiga Toxin SOP - stx2 screening assay
Type: functional
Parameters: scale not given: direction of the effect not stated beside the values
Details: 30 µM
Measured parameter: Percent Effect

Molecule | Result
Cc1noc(C)c1CN1CCN(Cc2nccn2C)CC1 | -1.2%
CCCn1nc2c(cc1=O)CN(CCS(C)(=O)=O)CC2 | 0.931%
Cn1cnnc1S(=O)(=O)C1CCN(S(=O)(=O)c2ccc(F)c(Cl)c2)CC1 | -2.86%
Cc1nn(C)c2c(NCc3cccnc3)nc(C3CC3)nc12 | -7.86%
O=S(=O)(Cc1ccccc1)NCC1CCN(c2cnccn2)CC1 | 11.3%
Cn1cc(-c2csc(N3CCOCC3)n2)cn1 | -13%
CN(C)c1ncccc1CNC(=O)N1CCCC1CN1CCCCC1 (stereo unspecified) | -17.9%
c1ccc(OC[C@@H]2CCC[C@@]23CNCCO3)nc1 | -5.1%
CCc1nc(C2CCCN2C(=O)CCc2cccs2)no1 (stereo unspecified) | 24%
COc1ccccc1CC1CCCN(CCC#N)C1 (stereo unspecified) | 32.8%
O=C1NCCN1C1CCN(Cc2nc(-c3ccoc3)no2)CC1 | -21.2%
O=C(NCC(O)c1cccc(F)c1)c1cccnc1O (stereo unspecified) | -19%
COc1ccc(NC(C)C(=O)N2CCN(c3ncccn3)CC2)cn1 (stereo unspecified) | 5.46%
CC(C)c1nnc2ccc(N3CCC(C(=O)Nc4nccs4)CC3)nn12 | -32.8%
CN1CCCN(C(=O)NCc2csc(Br)c2)CC1 | 14.5%
CCc1ncnc2c1CCN(Cc1ccccn1)CC2 | -29.9%
CN(C)CCN1CCOCC2(C1)CN(Cc1ccsc1)CCO2 (stereo unspecified) | 3.8%
CCNC(=O)N1CCCC(c2noc(CC)n2)C1 (stereo unspecified) | 17.9%
N#Cc1cccnc1NCCNC(=O)N1CCCC(C(F)(F)F)C1 (stereo unspecified) | -17.9%
O=C(Cc1noc2ccccc12)N1CCCC1c1noc(C2CC2)n1 (stereo unspecified) | 8.27%
CCc1nc(CN2CCCN(C(=O)COCC3CC3)CC2)cs1 | -49.1%
c1cnc(N2CCOCC3(CCCN(CC4CC4)C3)C2)cn1 (stereo unspecified) | -8.06%
Cc1cc(C(=O)N2CCc3nnc(N)cc3C2)c(C)n1C1CC1 | -1.08%
Cc1nn(C)c(N(C)C)c1CNCc1cccnc1-n1cncn1 | -5.81%
COc1cccc([C@@H]2CCN(Cc3ccc4ccccc4n3)C[C@H]2O)c1 | -2.3%
CC(C)CNc1nc(C(=O)/N=c2\[nH]nc(C(C)(C)C)s2)cs1 | -23.9%
CN(Cc1nnc(-c2ccco2)o1)C1CCCN(c2cccnn2)C1 (stereo unspecified) | -78.7%
Cc1csc(CN2CCC[C@]3(C[C@H](Oc4ccccn4)CO3)C2)n1 | -19.3%
CC(=O)N(C)c1nc(CN2CCOC(Cn3cc(C)cn3)C2)cs1 (stereo unspecified) | -9.15%
CCn1ccnc1CN(C)CC1CCCN1c1cccnn1 (stereo unspecified) | -26.1%
CCN1CCOC(CNCc2ccccn2)C1 (stereo unspecified) | 12.2%
Cc1cnn(CCNCC(O)COc2ccc(C#N)cc2)c1 (stereo unspecified) | -30.5%
COc1c(C2CCCN2Cc2csc(C(C)C)n2)c(C)nn1C (stereo unspecified) | -10.7%
CCC1CN(C(=O)NCCOc2ccc3c(c2)OCO3)CCO1 (stereo unspecified) | -17.6%
Cc1nc(C)c(CNC(=O)NC(c2nnc3n2CCC3)C(C)C)s1 (stereo unspecified) | -7.7%
CC1CCCN(Cc2c(C3CCOCC3)[nH]c3ncccc23)C1 (stereo unspecified) | 12.7%
CCc1cccc(NS(=O)(=O)c2cc3c(c(C(=O)O)c2)OCCO3)c1 | -33.5%
COCCC(=O)N1C[C@@H]2COC[C@]2(COCc2cccnc2)C1 | -6.81%
CS(=O)(=O)c1cccc(C(N)c2ccc(F)c(F)c2)c1 (stereo unspecified) | -2.5%
Cc1noc([C@@H]2CC[C@@H]3[C@@H](CCN3S(=O)(=O)c3cccnc3)O2)n1 | -18.4%
Cc1cc(NC(=O)CN2CCOC(Cn3cccn3)C2)n(C)n1 (stereo unspecified) | -12.8%

---

Target: Aspartate--tRNA(Asp/Asn) ligase (Mycobacterium tuberculosis (strain ATCC 25618 / H37Rv)); note: in the data most compounds retested in dose-response had high values
Test: Assay for Asp RNA synthetase-1 from Mycobacterium tuberculosis
Format: functional
Design: scale not given: direction of the effect not stated beside the values
Conditions: 30 µM

Compound | Percent Effect [%]
Cc1nc(C)n(CC2CN(CCOc3ccccc3F)CCO2)n1 (centres undefined) | -0.955
CC(O)CN1CCC(CNCc2ccccc2Br)CC1 (centres undefined) | 1.21
COC(=O)Cn1c(=O)nc2n1C(=O)N(c1ccccc1)C2 | 1.18
COc1ccccc1C1CNC(=O)c2nc(-c3cnn(C)c3)[nH]c2C1 (centres undefined) | 1.33
Cc1ccc(C(=O)NCCS(C)(=O)=O)c(=O)[nH]1 | -3.5
Cc1cnn(CC2CCCN2C(=O)c2cc(C)no2)c1 (centres undefined) | -4.16
Cc1ncsc1C(=O)NC1CCN(CC(=O)N(C)c2ccccc2)CC1 | -3.57
CCN1C(=O)CCCC12CCCN(C(=O)c1cnccn1)C2 (centres undefined) | 0.865
COc1cccc2c1ccn2CCNC(=O)C(C)C | 6.33
O=C(NCC(O)c1ccc(F)c(F)c1)c1cccnc1O (centres undefined) | 2.78
CC(C)NC(=O)C1CN(C(N)=O)Cc2ccnn2C1 (centres undefined) | -3.46
Cc1cccc(CN2C[C@@H]3CCCO[C@@H]3[C@H](NS(C)(=O)=O)C2)n1 | 4.75
Cn1cc(CN2CC[C@H]3OCC[C@@H](C(=O)N4CCCCO4)[C@@H]3C2)cn1 | 2.85
O=C(CNC(=O)N1CCc2c([nH]c3ccc(Cl)cc23)C1)N1CCOCC1 | 3.4
CC(C)(C)c1cnc(CN2CCC[C@H]2CO)o1 | -4.22
CCCS(=O)(=O)NCC1CCOc2ccccc2C1 (centres undefined) | 0.416
Cc1cc(C)n(CC2CCCCN2Cc2cscn2)n1 (centres undefined) | -3.34
Cc1nn(C)c2c(N3CCN(C(=O)c4ccccc4)CC3)ncnc12 | 0.348
O=C1COC2(COCCN(Cc3ccsc3)C2)CN1c1ccc(F)cc1 (centres undefined) | 2.55

---

Target: Aspartate--tRNA(Asp/Asn) ligase (Mycobacterium tuberculosis (strain ATCC 25618 / H37Rv)) (UniProt P9WFW3); note: in the data most compounds retested in dose-response had high values
Sequence (whole entry): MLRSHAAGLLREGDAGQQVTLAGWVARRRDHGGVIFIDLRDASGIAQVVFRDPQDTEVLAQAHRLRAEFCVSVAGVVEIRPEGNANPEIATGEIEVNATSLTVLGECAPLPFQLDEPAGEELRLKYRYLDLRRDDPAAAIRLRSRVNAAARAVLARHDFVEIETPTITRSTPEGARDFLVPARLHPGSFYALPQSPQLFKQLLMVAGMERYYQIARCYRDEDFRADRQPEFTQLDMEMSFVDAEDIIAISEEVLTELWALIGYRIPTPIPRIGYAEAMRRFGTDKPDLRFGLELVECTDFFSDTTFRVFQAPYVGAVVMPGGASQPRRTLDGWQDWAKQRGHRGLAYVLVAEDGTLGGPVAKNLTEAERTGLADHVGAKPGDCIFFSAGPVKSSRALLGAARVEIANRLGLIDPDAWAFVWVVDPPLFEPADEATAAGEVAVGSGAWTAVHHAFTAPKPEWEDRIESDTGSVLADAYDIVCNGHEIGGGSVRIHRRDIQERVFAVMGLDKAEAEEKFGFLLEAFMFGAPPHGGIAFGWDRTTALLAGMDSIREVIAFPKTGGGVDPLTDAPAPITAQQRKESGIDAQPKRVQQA
Test: Assay for Asp RNA synthetase-1 from Mycobacterium tuberculosis
Assay type: functional
Design: scale not given: direction of the effect not stated beside the values
Details: 30 µM
Measured parameter: Percent Effect (%)

Molecule | Measured parameter | Recorded number
Cc1ccc(C(CNCc2cnn(C(C)C)c2)N2CCOCC2)s1 (configuration not stated) | Percent Effect | -4.07
COc1ccc(CN2C[C@@H](N(C)Cc3ccco3)[C@H]3OCCC[C@H]32)cc1 | Percent Effect | 0.632
Cc1cnn(C2CCCN(C(=O)c3cc(C4CC4)on3)C2)c1 (configuration not stated) | Percent Effect | -1.95
Cc1nc(C)c(C(=O)NCCNc2ncccc2C#N)s1 | Percent Effect | 0.324
CCOc1ccc(C(C)NC(=O)N2CCC(C(N)=O)CC2)cc1OC (configuration not stated) | Percent Effect | -0.725
O=C(NCc1ccccc1-n1cccn1)N1CCN2CCCCC2C1 (configuration not stated) | Percent Effect | -6.8
Cn1nnc2c1CCN(Cc1nccs1)C2COCc1ccccc1 (configuration not stated) | Percent Effect | 2.63
